FYI, the data here is from patent EP4748847A1.

Quick reference: pERK Assay Results (AlphaLISA p-Erk1/2, HUVEC) of the listed items.
# target or system: VEGFR-2 (human, UniProt P35968 20-1356)
# Sequence (P35968 20-1356): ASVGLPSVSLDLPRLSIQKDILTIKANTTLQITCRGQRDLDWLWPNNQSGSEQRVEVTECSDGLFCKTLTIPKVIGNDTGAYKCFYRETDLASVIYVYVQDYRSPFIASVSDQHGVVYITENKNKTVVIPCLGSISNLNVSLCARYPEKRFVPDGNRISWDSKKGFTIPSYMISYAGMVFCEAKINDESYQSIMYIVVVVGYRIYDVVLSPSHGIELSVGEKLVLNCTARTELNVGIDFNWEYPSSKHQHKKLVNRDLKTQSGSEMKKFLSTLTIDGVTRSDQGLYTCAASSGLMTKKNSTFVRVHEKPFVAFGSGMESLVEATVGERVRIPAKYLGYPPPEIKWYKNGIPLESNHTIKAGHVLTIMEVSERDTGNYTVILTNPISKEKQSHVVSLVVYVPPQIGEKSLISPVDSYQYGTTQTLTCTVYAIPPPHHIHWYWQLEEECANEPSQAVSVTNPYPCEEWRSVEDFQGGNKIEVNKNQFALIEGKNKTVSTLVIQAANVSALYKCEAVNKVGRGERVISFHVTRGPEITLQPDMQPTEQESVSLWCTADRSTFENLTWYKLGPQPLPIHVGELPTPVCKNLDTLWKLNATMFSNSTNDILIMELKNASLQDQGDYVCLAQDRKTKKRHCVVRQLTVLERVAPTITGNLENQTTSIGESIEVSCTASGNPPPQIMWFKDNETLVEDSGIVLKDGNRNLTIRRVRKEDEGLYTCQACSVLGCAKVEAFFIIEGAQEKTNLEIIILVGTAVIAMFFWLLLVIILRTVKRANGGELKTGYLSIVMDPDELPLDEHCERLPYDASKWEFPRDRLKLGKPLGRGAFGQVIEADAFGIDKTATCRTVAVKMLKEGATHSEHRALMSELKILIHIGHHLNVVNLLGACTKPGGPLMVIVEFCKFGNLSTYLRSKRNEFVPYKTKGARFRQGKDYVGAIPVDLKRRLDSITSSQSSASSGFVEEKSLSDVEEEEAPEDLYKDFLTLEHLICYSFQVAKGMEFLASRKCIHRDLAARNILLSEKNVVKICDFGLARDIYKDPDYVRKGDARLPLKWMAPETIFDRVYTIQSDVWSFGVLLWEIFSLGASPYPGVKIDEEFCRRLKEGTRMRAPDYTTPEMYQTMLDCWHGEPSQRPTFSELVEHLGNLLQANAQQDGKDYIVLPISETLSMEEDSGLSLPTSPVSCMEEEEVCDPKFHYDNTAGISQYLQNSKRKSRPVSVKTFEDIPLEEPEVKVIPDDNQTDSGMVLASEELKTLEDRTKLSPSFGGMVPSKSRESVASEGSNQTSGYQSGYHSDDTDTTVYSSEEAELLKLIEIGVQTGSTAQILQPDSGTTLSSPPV
# assay notes: cell-based or functional assay
Bridges are numbered along the chain shown (N, C = ends). [ ]: non-standard residue; d: D form. Met(O2) = CS(=O)(=O)CC[C@H](N)C(=O)O; hTyr = N[C@@H](CCc1ccc(O)cc1)C(=O)O; Hyp = O=C(O)[C@@H]1C[C@@H](O)CN1; hArg = N=C(N)NCCCC[C@H](N)C(=O)O; Tle = CC(C)(C)[C@H](N)C(=O)O; Atb = not defined here; Yph = not defined here
outcome measure: pERK Assay Results (AlphaLISA p-Erk1/2, HUVEC)

{"columns": ["binder", "reported measurement"],
 "data": [
  ["{CH2CO}-WW[Tle]DVKDDLY[F4G]VDCG-NH2 (thioether N-14; also: homodimer: Lys6 joined to Lys6 of second copy by cPEG17c (Linker Structure No. 4)) [Peptide complex Dimer Structure No. 43]", "≥ 50 % activity at 5 nM"],
  ["{CH2CO}-WW[Tle]DVKDD[Atb]Y[F4G][hTyr]DCG-NH2 (thioether N-14; reading uncertain; also: dimer: Lys6 joined to Lys6 of second copy by OCOPEG17OCO (Linker Structure No. 6)) [Peptide complex Dimer Structure No. 53]", "≥ 50 % activity at 5 nM"],
  ["{CH2CO}-WWVDVKDDLY[Yph]V[hArg]CG-NH2 (thioether N-14; reading uncertain; also: homodimer: Lys6 joined to Lys6 of second copy by OCOPEG13OCO (Linker Structure No. 5)) [Peptide complex Dimer Structure No. 39]", "≥ 50 % activity at 100 nM"],
  ["{CH2CO}-WWV[Met(O2)]VKDDLYF[hTyr]DCG-NH2 (thioether N-14; also: homodimer: Lys6 joined to Lys6 of second copy by OCOPEG13OCO (Linker Structure No. 5)) [Peptide complex Dimer Structure No. 38]", "≥ 50 % activity at 100 nM"],
  ["{CH2CO}-WW[Tle]DVKDDNYF[hTyr]DCG-NH2 (thioether N-14; not fully specified (residues 5, 6); also: dimer joined at Lys6 side chains by cPEG17c) [Peptide complex Dimer Structure No. 29]", "≥ 50 % activity at 10 nM"],
  ["{CH2CO}-WW[Tle]DVKDD[Atb]Y[F4G][hTyr][Hyp]CG-NH2 (thioether N-14; reading uncertain; also: dimer: Lys6 joined to Lys6 of second copy by OCOPEG13OCO (Linker Structure No. 5)) [Peptide complex Dimer Structure No. 54]", "≥ 50 % activity at 5 nM"],
  ["{CH2CO}-WW[Tle]D[alT]KDDLYF[hTyr]DCG-NH2 (thioether N-14; not fully specified (residue 6); also: homodimer: Lys6 joined to Lys6 of second copy by cPEG17c (Linker Structure No. 4)) [Peptide complex Dimer Structure No. 27]", "≥ 50 % activity at 10 nM"]
]}
